protocol: ATG_BRE_CIS: Attagene CIS-FACTORIAL HepG2 Assay for human Bone Morphogenetic Protein (BMP) Response Element (BRE) (AID 2282933)
experimental conditions: HepG2 BMP response element reporter, Attagene transcription factor profiling; actives raise or lower the signal
Calls of active or inactive are those of the source. How the source made its calls: active means hit-call score of the fitted dose curve at least 0.9, where 1 is the maximum; inactive means score below 0.9.
Permitted responses: active, inactive

Look up the recorded call for "CC(C)=CCC/C(C)=C/COC=O" in this test.
inactive

***
Tell me the assay call for "O=C(O)CN(CCN(CC(=O)O)CC(=O)O)CCN(CC(=O)O)CC(=O)O" please.
inactive

Answer briefly: the call reported for "O=C(Oc1ccccc1)c1ccc(O)cc1" in this assay.
inactive

What was the test verdict on OC1C(O)C(O)C(O)C(O)C1O (configuration not stated) ?
inactive

Each molecule tested received a call. Report the one for "CCN(CC)c1ccc(C(=C2C=CC(=[N+](CC)CC)C=C2)c2ccc(S(=O)(=O)O)cc2S(=O)(=O)[O-])cc1" .
inactive

Name the outcome recorded for "c1ccc2sc(SN(C3CCCCC3)C3CCCCC3)nc2c1" in the assay.
inactive

###

Read-out: Plasminogen activator inhibitor-1 (PAI1), SERPINE1 (gene 5054)
protocol: BSK_MyoF_PAI1: BioMAP Diversity Plus: MyoF Assay for Plasminogen activator inhibitor-1 (PAI1) Biomarker Activity (AID 2284256)
experimental conditions: primary human lung fibroblasts
The source made the active and inactive calls. How the source made its calls: active means hit-call score of the fitted dose curve at least 0.9, where 1 is the maximum; inactive means score below 0.9.
Pick one: active, inactive

Record excerpt, results attached:
Check the results log: what was the call for "CC(=O)O[C@]1(C(C)=O)CC[C@H]2[C@@H]3C[C@H](C)C4=CC(=O)CC[C@]4(C)[C@H]3CC[C@@]21C" ?
inactive

Which outcome was assigned to CCCCCCCCCCCCCCCCCC(=O)OCC(CC)CCCC (stereo unspecified) in this test?
inactive

Recorded call for "C=C(C)C(=O)O[C@H]1C[C@@H]2CC[C@@]1(C)C2(C)C" ?
active

---
Test call, this molecule: CC1COc2ccccc2N1C(=O)C(Cl)Cl (stereo unspecified)
active

Dear colleague, could you share the recorded outcome for "C#C[C@]1(O)CC[C@H]2[C@@H]3CCC4=Cc5oncc5C[C@]4(C)[C@H]3CC[C@@]21C" when you have a moment?
active

Returns: the outcome recorded for "Cc1ccc(O)c(C(C)(C)C)c1" in this assay.
active

###

Read-out: Epidermal growth factor receptor (EGFR), EGFR (gene 1956)
protocol: BSK_hDFCGF_EGFR: BioMAP Diversity Plus: hDFCGF Assay for Epidermal growth factor receptor (EGFR) Biomarker Activity (AID 2283057)
experimental conditions: primary human foreskin fibroblasts; actives raise or lower the signal
The source made the active and inactive calls. How the source made its calls: active means hit-call score of the fitted dose curve at least 0.9, where 1 is the maximum; inactive means score below 0.9.
readout type: outcome

# get_value(readout='outcome', item= "C=C[Si](OCC)(OCC)OCC" )
inactive

Consider the compound "CC(C)c1ccc(C(C)C)cc1" and give its measured outcome.
inactive

For the compound shown here, "C[C@H]1C[C@@H]2[C@H]([C@@H](O)C[C@@]3(C)[C@H]2CC[C@]3(O)C(=O)CO)[C@@]2(C)C=CC(=O)C=C12" , give the reported outcome.
inactive

###

study system: Signal transducer and activator of transcription 3 (Homo sapiens) (UniProt P40763)
Sequence (P40763 whole entry, looked up): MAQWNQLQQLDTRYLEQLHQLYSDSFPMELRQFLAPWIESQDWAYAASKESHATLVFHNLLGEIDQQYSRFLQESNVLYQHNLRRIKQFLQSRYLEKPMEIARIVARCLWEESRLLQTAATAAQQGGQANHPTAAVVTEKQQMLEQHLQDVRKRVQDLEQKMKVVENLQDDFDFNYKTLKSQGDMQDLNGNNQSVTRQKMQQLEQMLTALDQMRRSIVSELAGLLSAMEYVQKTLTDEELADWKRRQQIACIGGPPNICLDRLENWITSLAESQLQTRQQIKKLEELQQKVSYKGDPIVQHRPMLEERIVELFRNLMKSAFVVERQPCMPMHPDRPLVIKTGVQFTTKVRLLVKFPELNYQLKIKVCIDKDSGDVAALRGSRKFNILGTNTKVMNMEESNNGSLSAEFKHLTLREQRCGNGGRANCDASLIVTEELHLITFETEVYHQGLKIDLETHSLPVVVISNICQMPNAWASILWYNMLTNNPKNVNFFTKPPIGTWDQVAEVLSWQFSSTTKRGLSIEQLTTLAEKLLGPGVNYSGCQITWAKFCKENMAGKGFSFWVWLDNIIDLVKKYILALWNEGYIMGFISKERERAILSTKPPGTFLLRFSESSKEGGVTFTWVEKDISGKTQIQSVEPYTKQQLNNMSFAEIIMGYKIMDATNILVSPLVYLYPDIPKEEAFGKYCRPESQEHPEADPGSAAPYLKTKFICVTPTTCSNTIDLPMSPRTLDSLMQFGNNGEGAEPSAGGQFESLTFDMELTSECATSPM
protocol: ATG_STAT3_CIS: Attagene CIS-FACTORIAL HepG2 Assay for human Signal Transducer and Activator of Transcription 3 (STAT3) (AID 2282963)
experimental conditions: HepG2, Attagene cis-factorial STAT3 reporter transcription; actives raise or lower the signal
Active and inactive are the calls of the source. How the source made its calls: active means hit-call score of the fitted dose curve at least 0.9, where 1 is the maximum; inactive means score below 0.9.
Classes to choose from: active, inactive

These recorded examples may help you get a feel for the data.
Query: recorded result category for "C=CC(=O)OCCn1c(=O)n(CCOC(=O)C=C)c(=O)n(CCOC(=O)C=C)c1=O" in this test
active

Answer briefly: the call reported for "CCCCCCCCCCCCSC" in this assay.
inactive

I'd appreciate the recorded outcome for "CC(=O)C(C)=O" from this test.
inactive

Returns: the outcome recorded for C=CC(=O)OCC(O)COc1ccccc1 (centres undefined) in this assay.
inactive

Given "CCCCCCCCCCCCN(CCCCCCCCCCCC)CCCCCCCCCCCC" , state the outcome it received in this test.
inactive

Would you kindly look at the next entry?
Short answer needed: outcome of this test for "C=CC(=O)NCOCC(C)C" ?
inactive

###

Read-out: Matrix Metallopeptidase 1 (MMP1), MMP1 (gene 4312)
protocol: BSK_MyoF_MMP1: BioMAP Diversity Plus: MyoF Assay for Matrix Metallopeptidase 1 (MMP1) Biomarker Activity (AID 2284268)
experimental conditions: primary human lung fibroblasts
Experimental: BSK_MyoF is a cell-based, multiplexed-readout assay that uses lung fibroblasts, […], with measurements taken at 24 hours after chemical dosing in a microplate: 96-well plate.BSK_MyoF_MMP1 is an assay component measured in the BSK_MyoF assay. […] The levels of cell surface (or secreted, indicated by the prefix "s") biomarker endpoints were measured by ELISA. […] Plates were read after 6 h.
Activity calls are given as the source filed them. How the source made its calls: active means hit-call score of the fitted dose curve at least 0.9, where 1 is the maximum; inactive means score below 0.9.
Hello, when you answer, please use one of the following outcomes: y (active), n (inactive)

# outcome recorded in this test, key = "CCc1c(C)cc(N)c(CC)c1N"
n

Please state the recorded outcome for this compound: "CNC[C@H](O)c1cccc(O)c1"
n

Please indicate how the test categorized "CC(=O)Nc1ccccc1O" .
n

What did this assay record as the result for CCCCCCCCCCCCCCCCCC(=O)OCC(CC)CCCC (centres undefined) ?
n

# lookup: test call for "O=C1OC2(c3cc(Br)c(O)c(Br)c3Oc3c2cc(Br)c(O)c3Br)c2c(Cl)c(Cl)c(Cl)c(Cl)c21"
n

Hi, sorry to bother you, what did the test record for "N#Cc1ccc(CC(=NNC(=O)Nc2ccc(OC(F)(F)F)cc2)c2cccc(C(F)(F)F)c2)cc1" ?
n

Dear colleague, could you share the recorded outcome for "CC(C)(COC(=O)c1ccccc1)COC(=O)c1ccccc1" when you have a moment?
n

###

protocol: BSK_BE3C_SRB: Viability Assessment in the BioMAP Diversity Plus: BE3C Assay (AID 2283028)
experimental conditions: primary human bronchial epithelial cells
Activity calls are given as the source filed them. The calls were made as follows: active = hit-call score of the fitted dose curve at least 0.9, where 1 is the maximum; inactive = score below 0.9.
readout type: outcome

Solved entries (count: 6):
Sample CCCCC(CC)COCCC#N (configuration not stated) — what was its outcome?
inactive

Any idea what its outcome is? The molecule is "CCC(=O)OCc1ccccc1"
inactive

Data request, read-out outcome, for "C[C@H]1C[C@@H]2[C@H]([C@@H](O)C[C@@]3(C)[C@H]2CC[C@]3(O)C(=O)CO)[C@@]2(C)C=CC(=O)C=C12"
inactive

Value lookup for outcome; key = "CC(C)c1ccc(C(C)C)cc1"
inactive

Quick check: outcome of "COC(=O)c1ccc(C)cc1" ?
inactive

Need outcome, item "O=[N+]([O-])c1cc(C(F)(F)F)ccc1Cl"
inactive

Let us move to another entry and its outcome.
Sample "c1ccc2c(c1)c1cccc3ccc4cccc2c4c31" — what was its outcome?
inactive

###

study system: Cellular tumor antigen p53 (Homo sapiens)
protocol: TOX21_p53_BLA_p5_ratio: Tox21 HCT-116 p53 Agonism Beta-lactamase Assay, Ratio, Phase 5 (AID 2283599)
Records with an inconclusive call do not appear. The source made the active and inactive calls. Rule for the calls: active = hit-call score of the fitted dose curve at least 0.9, where 1 is the maximum; inconclusive = response in the unintended direction; inactive = score below 0.9.
Lab note: assign the record to one of active, inactive

Completed entries (count: 5):
Tell me the assay call for CC(C)=CCCC(C)CC=O (centres undefined) please.
inactive

Query: recorded result category for "CC1(C)CCC(C)(C)c2cc(C(=O)Nc3ccc(C(=O)O)cc3)ccc21" in this test
active

Fill in: this test's call for CCCCCCCCCCCCCCCCCC(=O)OCC(CC)CCCC (centres undefined) is ___
inactive

Kindly provide the recorded test outcome for the following compound: "CC(C)CCCCCCCOC(=O)c1ccc(C(=O)OCCCCCCCC(C)C)c(C(=O)OCCCCCCCC(C)C)c1"
inactive

Called result for "Cc1ccc(S)cc1"
inactive

---
Which outcome was assigned to "CCCC(=O)c1cc(O)c(O)cc1O" in this test?
inactive

In this assay, the call recorded for "CC(C)=CCCC(C)=CCCC(C)=CCO" was what?
inactive

In this assay, the call recorded for CCCCC(CC)COCCC#N (centres undefined) was what?
inactive

Entry "CCCCCCOC(=O)CC" : call = ?
inactive

Outcome? "CCCCNC(=O)NS(=O)(=O)c1ccc(C)cc1"
inactive

Field: outcome | Entry: "O=C(O)CCCCCCCC(=O)O"
inactive

I would be grateful if you could indicate the recorded call for "CCCCN" .
inactive

Fill in: this test's call for CC1CC(OC(=O)c2ccccc2O)CC(C)(C)C1 (centres undefined) is ___
inactive

Recorded call for "COC(=O)c1ccc(C)cc1" ?
inactive

###

Read-out: Monocyte Chemoattractant Protein-1 (MCP1), CCL2 (gene 6347)
protocol: BSK_LPS_MCP1: BioMAP Diversity Plus: LPS Assay for Monocyte Chemoattractant Protein-1 (MCP1) Biomarker Activity (AID 2283081)
experimental conditions: primary human HUVEC with PBMC; actives raise or lower the signal
The source made the active and inactive calls. The calls were made as follows: active = hit-call score of the fitted dose curve at least 0.9, where 1 is the maximum; inactive = score below 0.9.
Bench note: report the call from T (active), F (inactive)

Example entries begin here.
Please share the test call associated with "Cc1ccc2n[nH]nc2c1" .
F

Any idea what this test logged for "CCc1c(C)cc(N)c(CC)c1N" ?
F

Returns: the outcome recorded for "N#Cc1ccc(CC(=NNC(=O)Nc2ccc(OC(F)(F)F)cc2)c2cccc(C(F)(F)F)c2)cc1" in this assay.
F

More entries:
Call for entry "CCC(=O)OCc1ccccc1" :
F

For CC1COc2ccccc2N1C(=O)C(Cl)Cl (stereo not given) , what call appears in the results of this test?
T

Just curious, what result did CN(CCOc1ccc(CC2SC(=O)NC2=O)cc1)c1ccccn1 (stereo not given) get here?
F

Recorded test call requested for "CC(=O)O[C@]1(C(C)=O)CC[C@H]2[C@@H]3C[C@H](C)C4=CC(=O)CC[C@]4(C)[C@H]3CC[C@@]21C"
F

Call for entry CCCCCCCCCCCCCCCCCC(=O)OCC(CC)CCCC (stereo not given) :
F

Dear colleague, could you share the recorded outcome for "O=C(O)c1cn(C2CC2)c2cc(N3CCNCC3)c(F)cc2c1=O" when you have a moment?
F

What outcome does the record of this test show for "O=C(O)c1cn(-c2ccc(F)cc2)c2cc(N3CCNCC3)c(F)cc2c1=O" ?
F

Kindly provide the recorded test outcome for the following compound: "CC(=O)/C=C/C1=C(C)CCCC1(C)C"
F
